Biological target: Serine/threonine-protein kinase Nek5 (Homo sapiens)
Sequence (whole entry): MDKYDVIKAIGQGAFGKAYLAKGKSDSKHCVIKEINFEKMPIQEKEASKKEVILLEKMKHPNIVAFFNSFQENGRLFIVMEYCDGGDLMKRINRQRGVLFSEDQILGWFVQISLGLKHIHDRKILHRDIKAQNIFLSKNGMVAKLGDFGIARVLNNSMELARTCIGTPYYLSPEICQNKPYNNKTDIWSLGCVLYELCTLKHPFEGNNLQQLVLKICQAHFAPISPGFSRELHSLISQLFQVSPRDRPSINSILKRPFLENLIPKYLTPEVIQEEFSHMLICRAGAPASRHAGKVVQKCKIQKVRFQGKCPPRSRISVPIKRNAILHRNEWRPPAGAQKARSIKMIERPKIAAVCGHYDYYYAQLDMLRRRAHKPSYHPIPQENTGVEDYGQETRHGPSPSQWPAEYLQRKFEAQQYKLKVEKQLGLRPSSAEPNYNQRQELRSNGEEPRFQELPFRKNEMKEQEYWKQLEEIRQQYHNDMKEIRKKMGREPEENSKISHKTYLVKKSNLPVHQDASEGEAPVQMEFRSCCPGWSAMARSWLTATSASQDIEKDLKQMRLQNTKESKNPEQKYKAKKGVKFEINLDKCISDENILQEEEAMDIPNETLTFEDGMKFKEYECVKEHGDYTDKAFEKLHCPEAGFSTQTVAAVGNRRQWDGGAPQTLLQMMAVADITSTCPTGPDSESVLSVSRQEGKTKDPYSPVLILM
Assay: Inhibition of NEK5 (unknown origin) at 1 uM relative to control
endpoint: inhibition (%)
Write the answer as a number in %, unit excluded.

Consider the worked cases shown below.
| molecule | quantitative.readout |
| --- | --- |
| Nc1nccc2scc(-c3ccc4c(c3)CCN4C(=O)Cc3cc(F)ccc3F)c12 | 6 |
| CC(C)c1nc(-c2cccc(NS(=O)(=O)c3ccccc3)c2)c(-c2ccnc(Nc3ccc4c(c3)CN(C)CC4)n2)s1 | 100 |
| COc1cccc(C2=C(Nc3cccc(O)c3)C(=O)NC2=O)c1 | 2 |
| Nc1ncc(-c2cccnc2)c2scc(-c3ccc4c(c3)CCN4C(=O)Cc3ccccc3)c12 | 22 |
| Cn1cc(-c2ccc3c(c2)CCN3C(=O)Cc2cccc(Cl)c2)c2c(N)ncnc21 | 32 |
| CC(C)(C)c1nc(-c2cccc(NS(=O)(=O)c3c(F)cccc3F)c2F)c(-c2ccnc(N)n2)s1 | 75 |
| Cn1cc(-c2ccc3c(c2)CCN3C(=O)Cc2ccccc2Cl)c2c(N)ncnc21 | 7 |
| CN(C)CCNS(=O)(=O)c1ccc(-c2ccnc3[nH]ccc23)cc1 | 1 |

Moving on to the next molecule.
Record Nc1ncc(-c2cn[nH]c2)c2scc(-c3ccc4c(c3)CCN4C(=O)Cc3ccccc3)c12 , field inhibition: 21

###

target: Serine/threonine-protein kinase Nek9 (Homo sapiens); experiment: Inhibition of NEK9 (unknown origin) at 10 uM relative to control
endpoint: % control (%)
Form entry: value (%) — number only.

Recorded % control, per entry:
| compound | reading.unit | % control |
| --- | --- | --- |
| Cc1cc(NC(=O)c2cccc(NC(=O)/C=C/CN(C)C)c2)ccc1Nc1nccc(-c2cccnc2)n1 | % | 100 |
| Cc1ccc(NC(=O)c2ccc(NC(=O)/C=C/CN(C)C)cc2)cc1Nc1nccc(-c2cccnc2)n1 | % | 100 |
| O=C1NC(=O)/C(=C/c2ccc3nccc(-c4ccncc4)c3c2)S1 | % | 95 |
| CCCS(=O)(=O)Nc1ccc(F)c(C(=O)c2c[nH]c3ncc(-c4ccc(Cl)cc4)cc23)c1F [VEMURAFENIB] | % | 66 |
| CN(C)C/C=C/C(=O)Nc1cccc(C(=O)Nc2ccc(Nc3nccc(-c4cccnc4)n3)cc2)c1 | % | 48 |
| Fc1cc(-c2cc[nH]/c(=N/c3ccc(-n4cnc(N5CCOCC5)n4)cc3)n2)cc(N2CCOCC2)c1 | % | 63 |

// % control value for CN(C)C/C=C/C(=O)Nc1cccc(C(=O)Nc2ccc(Nc3nccc(/C(C#N)=C4\Nc5ccccc5S4)n3)cc2)c1 : 63

// % control value for CN(C)C/C=C/C(=O)Nc1ccc(C(=O)Nc2cccc(Nc3nccc(-c4cccnc4)n3)c2)cc1 : 22

Reported % control ( CN(C)C/C=C/C(=O)Nc1cccc(C(=O)Nc2ccc(Nc3nccc(-c4c(-c5ccccc5)nn5ccccc45)n3)cc2)c1 ) = 100
